tested.system: Voltage-dependent N-type calcium channel subunit alpha-1B (Homo sapiens)
Sequence (Q00975 whole entry): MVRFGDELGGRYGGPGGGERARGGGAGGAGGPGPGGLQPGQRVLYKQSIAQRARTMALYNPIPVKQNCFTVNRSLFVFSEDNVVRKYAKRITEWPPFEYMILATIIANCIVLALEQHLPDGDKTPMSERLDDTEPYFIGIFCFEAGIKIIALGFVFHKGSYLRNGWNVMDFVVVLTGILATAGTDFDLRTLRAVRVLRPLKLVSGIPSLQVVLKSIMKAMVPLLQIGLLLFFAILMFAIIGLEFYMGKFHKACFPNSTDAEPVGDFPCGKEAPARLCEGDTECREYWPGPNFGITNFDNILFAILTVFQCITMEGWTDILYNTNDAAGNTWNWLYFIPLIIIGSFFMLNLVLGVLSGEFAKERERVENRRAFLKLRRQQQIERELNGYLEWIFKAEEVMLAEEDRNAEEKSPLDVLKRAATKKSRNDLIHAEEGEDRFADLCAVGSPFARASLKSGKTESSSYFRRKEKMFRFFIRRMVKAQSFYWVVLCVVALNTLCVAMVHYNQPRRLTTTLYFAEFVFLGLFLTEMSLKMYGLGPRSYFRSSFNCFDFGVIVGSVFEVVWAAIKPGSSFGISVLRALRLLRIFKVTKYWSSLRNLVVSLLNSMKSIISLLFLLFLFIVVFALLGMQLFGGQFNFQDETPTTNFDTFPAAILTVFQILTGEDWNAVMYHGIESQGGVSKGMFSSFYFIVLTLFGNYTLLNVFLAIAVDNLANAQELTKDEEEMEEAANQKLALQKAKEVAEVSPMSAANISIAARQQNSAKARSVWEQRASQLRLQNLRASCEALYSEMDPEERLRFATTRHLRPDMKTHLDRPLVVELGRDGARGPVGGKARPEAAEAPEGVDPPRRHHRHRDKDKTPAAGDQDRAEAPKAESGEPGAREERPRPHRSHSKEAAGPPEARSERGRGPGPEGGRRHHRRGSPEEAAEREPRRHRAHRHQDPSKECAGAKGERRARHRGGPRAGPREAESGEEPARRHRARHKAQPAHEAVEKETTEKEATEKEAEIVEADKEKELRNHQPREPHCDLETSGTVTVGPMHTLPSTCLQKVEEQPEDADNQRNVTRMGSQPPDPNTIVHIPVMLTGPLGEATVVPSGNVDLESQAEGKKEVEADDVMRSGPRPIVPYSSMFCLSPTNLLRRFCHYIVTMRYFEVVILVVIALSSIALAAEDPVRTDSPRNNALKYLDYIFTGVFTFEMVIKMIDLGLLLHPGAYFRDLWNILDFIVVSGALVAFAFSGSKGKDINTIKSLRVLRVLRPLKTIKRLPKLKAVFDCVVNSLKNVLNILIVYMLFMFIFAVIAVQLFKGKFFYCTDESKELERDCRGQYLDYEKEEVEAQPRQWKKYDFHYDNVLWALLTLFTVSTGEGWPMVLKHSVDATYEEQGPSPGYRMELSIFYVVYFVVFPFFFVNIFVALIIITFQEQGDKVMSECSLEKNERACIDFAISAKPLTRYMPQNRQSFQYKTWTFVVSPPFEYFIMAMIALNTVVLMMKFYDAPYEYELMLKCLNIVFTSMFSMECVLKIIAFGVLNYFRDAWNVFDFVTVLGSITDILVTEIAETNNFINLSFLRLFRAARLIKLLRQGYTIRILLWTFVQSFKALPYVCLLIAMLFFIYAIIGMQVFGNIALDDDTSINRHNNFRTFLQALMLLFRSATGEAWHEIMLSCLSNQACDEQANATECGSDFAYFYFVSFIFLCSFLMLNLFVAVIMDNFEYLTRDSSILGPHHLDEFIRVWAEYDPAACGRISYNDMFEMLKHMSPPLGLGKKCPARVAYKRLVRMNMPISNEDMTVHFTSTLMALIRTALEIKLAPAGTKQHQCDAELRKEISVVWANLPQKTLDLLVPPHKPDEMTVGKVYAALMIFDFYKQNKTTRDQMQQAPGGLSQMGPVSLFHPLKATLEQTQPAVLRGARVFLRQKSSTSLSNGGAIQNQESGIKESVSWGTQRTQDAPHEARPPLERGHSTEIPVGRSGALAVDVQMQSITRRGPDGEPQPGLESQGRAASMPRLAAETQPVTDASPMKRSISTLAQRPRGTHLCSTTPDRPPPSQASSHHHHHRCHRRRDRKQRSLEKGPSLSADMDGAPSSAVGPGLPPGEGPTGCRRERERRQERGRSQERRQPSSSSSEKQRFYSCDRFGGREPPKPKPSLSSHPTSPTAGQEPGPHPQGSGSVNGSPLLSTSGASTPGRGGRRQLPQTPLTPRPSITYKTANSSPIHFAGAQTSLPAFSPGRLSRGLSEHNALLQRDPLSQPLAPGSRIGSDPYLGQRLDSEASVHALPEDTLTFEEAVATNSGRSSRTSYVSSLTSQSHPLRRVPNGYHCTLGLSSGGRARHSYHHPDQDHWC
protocol.summary: Inhibition of N-type calcium channel alpha 1 B

{"compound": "CN(C)CCCCCN(C)C1=Nc2ccccc2C(CC(=O)NCc2ccccc2)N1c1ccc(-c2ccccc2)cc1.Cl.Cl (stereo unspecified)", "IC50": "4.9 µM"}
